Data origin: ChEMBL document CHEMBL4665838

# method_description: Volume of distribution at steady state in C57BL/6 mouse at 1 mg/kg, iv
# Assay type: ADME, organism-based
# details: in vivo, read-out: Vdss
readout_label: Vd
Provide a numeric answer, followed by its unit.

O=C(Nc1c2c(cc3c1CCC3)CCC2)NS(=O)(=O)/C=C/c1nccs1 ... 0.2 L/kg

Inquiry: I am curious: what Vd value has been reported for CC(C)(O)c1coc(S(=O)(=O)NC(=O)Nc2c3c(cc4c2CCC4)CCC3)c1 ?
Reply text: 0.15 L/kg

###

# method_description: Terminal half life in C57BL/6 mouse at 3 mg/kg, po
# Format: ADME, organism-based
# details: in vivo, read-out: beta t1/2 (converted)
Entries and their half-life
Report the figure in h without appending any unit label.

O=C(Nc1c2c(cc3c1CCC3)CCC2)NS(=O)(=O)/C=C/c1nccs1 ... 2.86

Inquiry: I am curious: what half-life value has been reported for CC(C)(O)c1coc(S(=O)(=O)NC(=O)Nc2c3c(cc4c2CCC4)CCC3)c1 ?
Reply text: 1.32
